All values here come from PubChem BioAssay (NCI).

test system: HS 578T breast; test: NCI tumour cell line growth inhibition, 48 h
property.label: TGI

[[record]]
compound = "O=C1C(Cl)C2(CC(/C=C/c3cccs3)=NN2c2cccc(S(=O)(=O)O)c2)N1c1nc2ccccc2s1 (stereo unspecified)"
property_label = "TGI"
recorded_value = "> 100 µM"

[[record]]
compound = "COc1ccc(C2C=C(c3ccc(OC)c(OC)c3)N=C3SC=CN32)c(Br)c1 (stereo unspecified)"
property_label = "TGI"
recorded_value = "> 100 µM"

[[record]]
compound = "COc1ccc(C(=S)N(C)NC(=O)CC(=O)NN(C)C(=S)c2ccc(OC)cc2)cc1"
property_label = "TGI"
recorded_value = "82.6 µM"

[[record]]
compound = "C=CCCCCNC(=O)C[C@@H]1C2=C(CC[C@H]1O[Si](C)(C)C(C)(C)C)N1C(=O)CCC/C=C\\C1C2 (stereo partly specified)"
property_label = "TGI"
recorded_value = "32.9 µM"

[[record]]
compound = "C[CH2][Pb]([CH2]C)([CH2]C)[O]C(=O)COC"
property_label = "TGI"
recorded_value = "4.57 µM"

[[record]]
compound = "COC(=O)C(Cc1ccc(OC)cc1O)NC(=O)OC(C)(C)C (stereo unspecified)"
property_label = "TGI"
recorded_value = "> 100 µM"

[[record]]
compound = "COc1ccc(-c2cc(=O)c3c(O)cc(O)cc3o2)cc1OC"
property_label = "TGI"
recorded_value = "> 100 µM"

[[record]]
compound = "CNC(=S)/C(C#N)=C(\\N)N1CCN(C)CC1"
property_label = "TGI"
recorded_value = "> 100 µM"

[[record]]
compound = "Cc1cccc2c(NCCCN(C)C)c3c([N+](=O)[O-])ccc(C)c3nc12"
property_label = "TGI"
recorded_value = "2.96 µM"

[[record]]
compound = "COC(=O)C1=C(C=O)C2C=CC1C2 (stereo unspecified)"
property_label = "TGI"
recorded_value = "> 100 µM"

[[record]]
compound = "CC1(C)CC[C@]2(C(=O)Nc3ccccn3)CC[C@]3(C)C(=CC[C@@H]4[C@@]5(C)C/C(=C/c6ccncc6)C(=O)C(C)(C)[C@@H]5CC[C@]43C)[C@@H]2C1"
property_label = "TGI"
recorded_value = "> 100 µM"

[[record]]
compound = "OCCN(CCO)c1ccc2c(-c3ccccc3)cc(N(CCO)CCO)nc2n1"
property_label = "TGI"
recorded_value = "> 100 µM"

[[record]]
compound = "CNCCCNc1nc2ccccc2c2c(=O)c3cc(F)ccc3sc12"
property_label = "TGI"
recorded_value = "3.11 µM"

[[record]]
compound = "S=C(S)N1CCCCC1"
property_label = "TGI"
recorded_value = "> 406 µM"

[[record]]
compound = "CN(C)CCONC(=O)C12CC3CC(CC(C3)C1)C2"
property_label = "TGI"
recorded_value = "> 100 µM"

[[record]]
compound = "COc1cc2c3c(n(CCCNC4=NCCS4)c(=O)c2cc1OC)-c1cc2c(cc1C3=O)OCO2"
property_label = "TGI"
recorded_value = "3.85 µM"

[[record]]
compound = "O=S(=O)(c1ccccc1)n1c(C(O)c2ccccc2)cc2ccccc21 (stereo unspecified)"
property_label = "TGI"
recorded_value = "27.9 µM"

[[record]]
compound = "C=C(CCOC)CCC1CCCCC/C1=N\\N(C)C (stereo unspecified)"
property_label = "TGI"
recorded_value = "> 100 µM"

[[record]]
compound = "N#CC(C#N)=Cc1c[nH]c(=O)[nH]c1=O"
property_label = "TGI"
recorded_value = "> 100 µM"

[[record]]
compound = "O=C(Nc1nnc(-c2ccc(Cl)cc2)o1)C(SC(=S)N1CCCCC1)c1ccccc1 (stereo unspecified)"
property_label = "TGI"
recorded_value = "85 µM"

[[record]]
compound = "CCC1OC(=O)CC(O)C(C)C(OC2OC(C)C(O)C(N(C)C)C2O)C(CC=O)CC(C)C(=O)/C=C/C2(C)OC2C1C (stereo unspecified)"
property_label = "TGI"
recorded_value = "76.1 µM"


----------
tested on: PC-3 prostate; test: NCI tumour cell line growth inhibition, 48 h
# label = yes (1) if TGI >= 20 µM else no (0)

[[record]]
compound = "O=C(Nc1ccc(Cl)cc1)Nc1ccc(Cl)c(C(F)(F)F)c1"
category_label = "no (0)"

[[record]]
compound = "Cc1[nH]c(=O)nc2nc3ccc(Cl)cc3c(N(CCO)CCO)c12"
category_label = "yes (1)"

[[record]]
compound = "CC1CC2(OC2C)C(=O)OC2CCN(C)C/C=C(/COC(=O)C1(C)O)C2=O (configuration not stated)"
category_label = "yes (1)"

[[record]]
compound = "CC(C)(C)OC(=O)NC(CSCc1ccc(C(=O)c2ccccc2)cc1)C(=O)O (configuration not stated)"
category_label = "yes (1)"

[[record]]
compound = "CN(C)c1ccc(/C=C2\\C[C@H]3[C@@H]4CC=C5C[C@@H](O)CC[C@]5(C)[C@H]4CC[C@]3(C)C2=O)cc1"
category_label = "yes (1)"

[[record]]
compound = "O=c1c2cc(I)ccc2nc(Sc2ccc([N+](=O)[O-])cc2[N+](=O)[O-])n1Cc1ccccc1"
category_label = "no (0)"

[[record]]
compound = "C=CCc1cccc2cc(C(=O)NC3CCCCC3)c(=N)oc12"
category_label = "yes (1)"

[[record]]
compound = "COc1cc(/C=C/C(=O)c2ccccc2)cc(OC)c1OC"
category_label = "no (0)"

[[record]]
compound = "Cc1ccc(C(=O)Nc2ccc(S(=O)(=O)O)c3cc(S(=O)(=O)O)cc(S(=O)(=O)O)c23)cc1N"
category_label = "yes (1)"

[[record]]
compound = "NC(Cc1ccccc1)P(=O)(O)O (configuration not stated)"
category_label = "yes (1)"

[[record]]
compound = "COC(=O)C1=C(C=O)C2C=CC1C2 (configuration not stated)"
category_label = "yes (1)"

[[record]]
compound = "COc1cc(/C=C2\\C(=O)Nc3ccccc32)cc(OC)c1O"
category_label = "yes (1)"

[[record]]
compound = "C=C(C)c1cc(C(C)(C)C)cc(C(=C)C)c1S(C)(=O)=O"
category_label = "yes (1)"

[[record]]
compound = "C=CCCCCNC(=O)C[C@@H]1C2=C(CC[C@H]1O[Si](C)(C)C(C)(C)C)N1C(=O)CCC/C=C\\C1C2 (some centres not stated)"
category_label = "yes (1)"

[[record]]
compound = "CC12CCC([C@H](Nc3cc(C(F)(F)F)cc(C(F)(F)F)c3)C1=O)C2(C)C (some centres not stated)"
category_label = "yes (1)"

[[record]]
compound = "COc1cc(C2CC(c3cccc(Nc4ccncc4)c3)=NN2c2ccccc2)cc(OC)c1OC (configuration not stated)"
category_label = "no (0)"

[[record]]
compound = "CC(=O)c1c(Nc2cccc(F)c2)[nH]c2c(Cl)cc(Cl)c(Cl)c2c1=O"
category_label = "no (0)"


----------
tested on: NCI-H522 lung; experiment: NCI tumour cell line growth inhibition, 48 h
property.label: TGI (µM)

[[record]]
molecule = "CCCCC(=O)OC[n+]1ccc(-c2c(COC(=O)NC(C)C)c(COC(=O)NC(C)C)c3n2CCC3)cc1"
measurement_qualifier = ">"
recorded_value = 100

[[record]]
molecule = "C[C@]12CCC(N3CCCC3)CC1=CC[C@@H]1[C@@H]2CC[C@]2(C)C(O)[C@H](n3ccnc3)C[C@@H]12 (some centres undefined)"
measurement_qualifier = ">"
recorded_value = 100

[[record]]
molecule = "Nc1ccccc1Nc1ccccc1C(=O)[O-].Nc1ccccc1Nc1ccccc1C(=O)[O-].[Ni+2]"
measurement_qualifier = "="
recorded_value = 86

[[record]]
molecule = "COc1cc([C@@H]2c3cc4c(cc3[C@@H](OC3OC5CO[C@@H](c6cccs6)OC5C(O)C3O)[C@H]3COC(=O)[C@H]23)OCO4)cc(OC)c1O (some centres undefined)"
measurement_qualifier = "="
recorded_value = 4.16

[[record]]
molecule = "CC(=O)c1c(Nc2cccc(F)c2)[nH]c2c(Cl)cc(Cl)c(Cl)c2c1=O"
measurement_qualifier = ">"
recorded_value = 100

[[record]]
molecule = "CCCCCCCCCCCCCCCCCCOP(=O)([O-])OCC[N+](C)(C)C"
measurement_qualifier = "="
recorded_value = 1.46

[[record]]
molecule = "CCCCCCN1CCc2c(C)c(C#N)c3nc4ccccc4n3c21"
measurement_qualifier = ">"
recorded_value = 100

[[record]]
molecule = "CCN=c1nc2sc3c(c2c(NC(=S)NCC)s1)CCN(N1CCc2c(sc4nc(=NCC)sc(NC(=S)NCC)c24)C1)C3"
measurement_qualifier = ">"
recorded_value = 100

[[record]]
molecule = "O=C(Nc1nnc(-c2ccc(Cl)cc2)o1)C(SC(=S)N1CCCCC1)c1ccccc1 (centres undefined)"
measurement_qualifier = "="
recorded_value = 37.7

